Target: Coagulation factor VII (Homo sapiens, UniProt P08709)
Sequence (P08709 whole entry): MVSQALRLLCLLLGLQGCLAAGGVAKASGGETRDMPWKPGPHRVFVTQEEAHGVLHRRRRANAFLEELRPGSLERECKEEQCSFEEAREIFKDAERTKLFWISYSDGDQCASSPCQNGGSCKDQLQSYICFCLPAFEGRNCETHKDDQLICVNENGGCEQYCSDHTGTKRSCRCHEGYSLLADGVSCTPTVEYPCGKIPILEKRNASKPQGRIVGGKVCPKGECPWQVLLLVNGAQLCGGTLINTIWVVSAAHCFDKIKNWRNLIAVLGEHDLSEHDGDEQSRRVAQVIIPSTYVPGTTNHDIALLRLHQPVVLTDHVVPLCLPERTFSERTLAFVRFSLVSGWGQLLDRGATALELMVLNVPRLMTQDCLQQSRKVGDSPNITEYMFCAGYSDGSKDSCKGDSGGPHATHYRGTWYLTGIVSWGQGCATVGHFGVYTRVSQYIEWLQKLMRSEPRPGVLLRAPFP
Compiled literature Ki, tested on Coagulation factor VII (Homo sapiens, UniProt P08709).

{"columns": ["compound_string", "Ki"],
 "data": [
  ["Cl.NCCCC[C@H](NC(=O)c1ccc(F)c(F)c1)C(=O)c1noc(Cc2ccc(OCCc3ccc(Cl)c(Cl)c3)cc2)n1", "> 150 µM"],
  ["CC(C)(C)[C@@H](O)C(=O)N1CCNC[C@H]1C(=O)NCc1cc(Cl)ccc1CN.O=C(O)C(F)(F)F", "> 15 µM"],
  ["NCc1ccccc1-n1nc(C(F)(F)F)cc1C(=O)Nc1ccc(-c2ccccc2S(N)(=O)=O)cc1F", "> 15 µM"]
]}
